- system tested: CHD4 PHD1 (aa 362–417) (human, UniProt Q14839 362-417)
- Sequence (Q14839 362-417): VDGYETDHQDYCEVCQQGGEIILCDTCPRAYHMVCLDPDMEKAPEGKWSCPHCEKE
- assay overview: 150 mM NaCl
measurement label: pKd
The scale used: pKd is minus the common logarithm of the concentration in molar units.

So for ARTKQTARKSTG [histone H3 peptide (aa 1–12)] , the logged pKd turned out to be 4.74
